Every entry's value here was drawn from patent US12617799B2.

# System: rat Leydig tumor cell line R2C
# experiment summary: R2C proliferation assay for SF-1 antagonists (EdU incorporation)
# Type: cell-based
# condition: R2C, read-out: R2C: EC50
pEC50: −log10 of the molar value.
measured attribute: pEC50

molecule	reported measurement
Cn1nc(Nc2ccc(C(F)(F)F)cc2)c2ncn(CC(=O)N[C@@H]3CCC[C@@H](OC(F)F)C3)c(=O)c21 (single isomer, unassigned)	> 6.70

Ask: Return pEC50 for the following molecule: COc1ccc(NC(=O)Cn2cnc3c(Nc4ccc(C(F)(F)F)cc4)nn(C(C)C)c3c2=O)cc1F
Result: 5.00 to 6.00

---

The entries below are paired with their reported pEC50.
# target under test: human SF-1 (Homo sapiens, UniProt Q13285)
# Construct: expressed in transfected cells; host or cells: CHO-K1 cells (Chinese hamster ovary), transient cotransfection with pG5luc
# Sequence (Q13285 198-461 limits assumed): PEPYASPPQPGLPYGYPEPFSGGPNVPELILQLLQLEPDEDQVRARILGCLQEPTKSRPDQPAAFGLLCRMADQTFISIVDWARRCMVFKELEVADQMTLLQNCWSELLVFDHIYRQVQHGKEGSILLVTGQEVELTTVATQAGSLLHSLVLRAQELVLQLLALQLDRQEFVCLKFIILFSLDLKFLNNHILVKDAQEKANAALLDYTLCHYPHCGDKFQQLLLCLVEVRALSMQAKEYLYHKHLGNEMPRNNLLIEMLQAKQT
# experiment summary: SF-1 Luc assay (Gal4DBD-SF-1LBD luciferase reporter in transfected CHO-K1 cells)
# Type: cell-based
# condition: CHO-K1 cells transfected with GAL4-SF-1 plasmid, 40 hours incubation; read-out: hSF-1-Luc: EC50
pEC50: −log10 of the molar value.

compound	pEC50
C[C@H](CO)Oc1ccc(NC(=O)Cn2cnc3c(Nc4ccc(C(F)(F)F)cc4)nn(C)c3c2=O)cc1 (single isomer, unassigned)	> 6.70
Cn1nc(Nc2ccc(C(F)(F)F)cc2)c2ncn(CC(=O)N[C@H]3CCC[C@@H](OC(F)F)C3)c(=O)c21 (single isomer, unassigned)	> 6.70
C[C@H](O)CO[C@H]1CC[C@H](NC(=O)Cn2cnc3c(Nc4ccc(C(F)(F)F)cc4)nn(C)c3c2=O)CC1	> 6.70
Cn1nc(Nc2ccc(C(F)(F)F)cc2)c2ncn(CC(=O)N[C@H]3CC[C@@H](OC(F)F)CC3)c(=O)c21	> 6.70
Cn1nc(Nc2ccc(C(F)(F)F)cc2)c2ncn(CC(=O)N[C@H]3CC[C@H](OCC(C)(C)O)CC3)c(=O)c21	> 6.70

Ask: # return recorded pEC50 for entry Cn1nc(Nc2ccc(C(F)(F)F)cc2)c2ncn(CC(=O)NC(C)(C)C3CCOCC3)c(=O)c21
Result: 6.00 to 6.70

Ask: Could you please provide reported pEC50 for Cn1nc(Nc2ccc(C(F)(F)F)cc2)c2ncn(CC(=O)N[C@@H]3CCC[C@H](OC(F)F)C3)c(=O)c21 (single isomer, unassigned) ? Thanks!
Result: > 6.70

Ask: Return reported pEC50. Input compound: Cc1cc(C(C)(C)S(C)(=O)=O)ccc1NC(=O)Cn1cnc2c(Nc3ccc(C(F)(F)F)cc3)nn(C)c2c1=O
Result: > 6.70

Ask: Please supply the value of reported pEC50 for the item Cn1nc(Nc2ccc(C(F)(F)F)cc2)c2ncn(CC(=O)N[C@H]3CC[C@H](OC(F)F)CC3)c(=O)c21
Result: > 6.70

Ask: Retrieve pEC50 measured for Cn1nc(Nc2ccc(C(F)(F)F)cc2)c2ncn(CC(=O)Nc3ccc(C(C)(C)C(=O)O)cc3)c(=O)c21 and print it.
Result: 6.00 to 6.70
